- system under test: Glycogen phosphorylase, liver form (Homo sapiens, UniProt P06737)
- Sequence (P06737 whole entry): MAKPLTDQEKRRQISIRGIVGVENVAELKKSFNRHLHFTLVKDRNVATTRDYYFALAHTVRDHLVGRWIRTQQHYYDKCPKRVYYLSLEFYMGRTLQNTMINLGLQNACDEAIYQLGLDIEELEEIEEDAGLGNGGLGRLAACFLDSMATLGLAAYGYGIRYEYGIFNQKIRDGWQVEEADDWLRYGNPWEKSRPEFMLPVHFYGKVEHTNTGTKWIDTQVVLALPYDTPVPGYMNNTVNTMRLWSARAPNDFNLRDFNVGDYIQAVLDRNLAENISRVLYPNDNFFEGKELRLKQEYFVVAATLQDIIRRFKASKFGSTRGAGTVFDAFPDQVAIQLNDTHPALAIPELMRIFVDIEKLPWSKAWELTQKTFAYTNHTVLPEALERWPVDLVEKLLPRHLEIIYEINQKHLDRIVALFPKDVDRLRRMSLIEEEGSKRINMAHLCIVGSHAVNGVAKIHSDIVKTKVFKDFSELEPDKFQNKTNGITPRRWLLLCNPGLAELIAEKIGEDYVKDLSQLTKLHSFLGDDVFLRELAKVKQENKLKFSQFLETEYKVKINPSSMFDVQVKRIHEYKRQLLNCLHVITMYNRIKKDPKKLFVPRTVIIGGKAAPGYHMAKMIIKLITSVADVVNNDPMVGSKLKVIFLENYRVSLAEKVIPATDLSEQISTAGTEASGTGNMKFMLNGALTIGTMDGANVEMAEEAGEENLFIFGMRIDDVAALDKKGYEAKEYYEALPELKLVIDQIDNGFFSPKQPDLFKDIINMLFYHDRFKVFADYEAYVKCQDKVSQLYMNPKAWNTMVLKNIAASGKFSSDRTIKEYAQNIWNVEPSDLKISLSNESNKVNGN
- protocol summary: Inhibition of human liver glycogen phosphorylase a in absence of glucose
pIC50: −log10 of the molar value.
Class Criterion met: pIC50 at least 6. Class Criterion not met: pIC50 below 6.

[
  {
    "chem smiles": "O=C(/C=C/c1ccc(Cl)c(Cl)c1)NCCCCCCCCNC(=O)/C=C/c1ccc(Cl)c(Cl)c1",
    "class": "Criterion not met"
  },
  {
    "chem smiles": "O=C(/C=C/c1ccc(Cl)c(Cl)c1)NCCOCCNC(=O)/C=C/c1ccc(Cl)c(Cl)c1",
    "class": "Criterion met"
  },
  {
    "chem smiles": "O=C(C#Cc1ccc(Cl)c(Cl)c1)NCCCCCNC(=O)C#Cc1ccc(Cl)c(Cl)c1",
    "class": "Criterion not met"
  },
  {
    "chem smiles": "O=C(/C=C/c1ccc(Cl)c(Cl)c1)NCC[S+]([O-])CCNC(=O)/C=C/c1ccc(Cl)c(Cl)c1",
    "class": "Criterion met"
  },
  {
    "chem smiles": "O=C(CCc1ccc(Cl)c(Cl)c1)NCCCCCNC(=O)CCc1ccc(Cl)c(Cl)c1",
    "class": "Criterion not met"
  },
  {
    "chem smiles": "O=C(/C=C/c1ccc(Cl)c(Cl)c1)NCCCCCCNC(=O)/C=C/c1ccc(Cl)c(Cl)c1",
    "class": "Criterion not met"
  },
  {
    "chem smiles": "O=C(/C=C/c1ccc(Cl)c(Cl)c1)NCCSCCNC(=O)/C=C/c1ccc(Cl)c(Cl)c1",
    "class": "Criterion met"
  },
  {
    "chem smiles": "O=C(/C=C/c1ccc(Cl)c(Cl)c1)NCCCNC(=O)/C=C/c1ccc(Cl)c(Cl)c1",
    "class": "Criterion not met"
  },
  {
    "chem smiles": "O=C(/C=C/c1ccc(Cl)c(Cl)c1)NCCCCCNC(=O)/C=C/c1ccc(Cl)c(Cl)c1",
    "class": "Criterion met"
  },
  {
    "chem smiles": "O=C(/C=C/c1ccc(Cl)c(Cl)c1)NCCCCNC(=O)/C=C/c1ccc(Cl)c(Cl)c1",
    "class": "Criterion met"
  },
  {
    "chem smiles": "O=C(/C=C/c1ccc(Cl)c(Cl)c1)NCCNC(=O)/C=C/c1ccc(Cl)c(Cl)c1",
    "class": "Criterion not met"
  },
  {
    "chem smiles": "O=C(/C=C/c1ccc(Cl)c(Cl)c1)NCCCCCCCNC(=O)/C=C/c1ccc(Cl)c(Cl)c1",
    "class": "Criterion not met"
  }
]
